Recorded values, source ChEMBL document CHEMBL1201862.

- Test system: PC-3
- MEASUREMENT_PROTOCOL: NCI tumour cell line growth inhibition, 48 h
Calls of active or inactive are those of the source. Rule as the data show it: active = GI50 up to about 1.1 µM and inactive = higher.
Parameter call: string, one of active, inactive

Worked cases, answers included:
> print(dat)
                                   molecule  class.label
1  CC(=O)N1C(=O)/C(=C\C(=O)c2ccc(Cl)cc2)c2ccccc21     inactive
2  COc1cccc2c1C(=N)c1c(O)c3c(c(O)c1C2=O)C[C@@](O)(C(C)=O)C[C@@H]3OC1CC(N)C(O)C(C)O1 (some centres not stated)       active
3               CCOC(=O)CCCn1cc(C(=O)OC)nn1     inactive

Input: Hi, do you know how OCCOCn1cc(Cn2ncc3c(SCc4ccccc4)ncnc32)nn1 came out in this test?
Output: inactive

Input: GET /call?item= COc1cc(Cn2c3c(c4c(CN(C)C)c(O)ccc42)C(=O)c2ccccc2C3=O)cc(OC)c1 returns the recorded outcome of this test.
Output: inactive

Input: I would be grateful if you could indicate the recorded call for C=C(Cl)C(C)(Cl)CCC(Cl)C(C)(C)Cl (configuration not stated) .
Output: inactive

Input: Any idea what this test logged for CCOC(=O)C1(Cc2ccccc2)C=CN(C(=O)c2ccccc2)C=C1 ?
Output: inactive

* * *

// GI50 collected for HCT-15

Worked examples follow.
MOLECULE	RESULT
C1OC1C1CO1 (configuration not stated)	> 100 µM
COC(=O)C1C(OC(=O)C(Cl)(c2ccccc2)c2ccccc2)CC2CCC1N2C (configuration not stated)	> 100 µM
NC(=O)c1nnc2ccc(F)cc2c1N	> 100 µM
NC(=O)c1ncn(C2CCC(CP(=O)(O)O)C2)c1N (configuration not stated)	> 100 µM
O=C1c2ccccc2C(=O)c2c1ccc1conc21	2.75 µM
O=C(Nc1nnc(-c2ccccc2)o1)C(SC(=S)N1CCCCC1)c1ccccc1 (configuration not stated)	5.02 µM

Input: Report GI50 for O=C(C(=O)N1CCc2ccccc21)c1c[nH]c2ccccc12 tested on HCT-15.
Output: > 10 µM

Input: Observed GI50 on HCT-15 for CCCCNC(=S)Nn1c(-c2ccccc2)nc2ccccc2c1=O , please.
Output: > 100 µM

Input: Lab note: need GI50 with HCT-15 for entry Cc1cc2c3ccccc3n3c2c2c1OC1(C)CCC(C2C1)C3(C)C (configuration not stated) , please look it up.
Output: > 25 µM

Input: Query the reported GI50 for HCT-15; item: O=C1CSC(/C=C/c2ccccc2)N1c1ccc(-c2ccc(-n3c(-c4ccccc4)nc4ccccc4c3=O)cc2)cc1 (configuration not stated)
Output: 20.7 µM

Input: GET /values?readout=GI50&system=HCT-15&item= O=C1[C@@H]2[C@@H](c3ccccc3)[C@]2(Cl)C(=O)[C@H]2[C@H](c3ccccc3)[C@@]12Cl
Output: > 100 µM

Input: Form field: GI50 recorded for COc1ccc(N2C(=O)CC(=O)N(C(=O)CCCCCCCCC(=O)N3C(=O)CC(=O)N(c4ccc(OC)cc4)C3=S)C2=S)cc1 with HCT-15 (enter value)
Output: > 100 µM

Input: Notebook: pull reported GI50 for HCT-15, entry CCCCCOC(=O)C(=O)Nc1[nH]nnc1C(N)=O
Output: > 100 µM

Input: Provide value of GI50 for this record tested with HCT-15: COc1cc([C@@H]2c3cc4c(cc3C[C@H]3COC(=O)[C@@H]32)OCO4)cc2c1OCO2
Output: < 0.01 µM

Input: Please tell me: GI50 of O=[N+]([O-])/C=C/c1cn(CCCCCCCCCCCCn2cc(/C=C/[N+](=O)[O-])c3ccccc32)c2ccccc12 , system HCT-15?
Output: > 100 µM

Input: Find GI50 (HCT-15) for the entry Nc1cccc2nsnc12
Output: > 76.7 µM

Input: Please tell me: GI50 of O=C1CCSCCC(=O)Nc2ccccc2N1 , system HCT-15?
Output: > 100 µM

Input: Value wanted: GI50 (HCT-15) of entry CCC1CN2CCc3cc(OC)c(OC)cc3C2CC1CC1c2cc(OC)c(OC)cc2CCN1C(=O)C(N)Cc1ccccc1.[O-][Cl+3]([O-])([O-])O (configuration not stated)
Output: 1.72 µM

Input: Notebook entry, HCT-15 assay: GI50 of O=C1C2c3[nH]c4ccccc4c3C3CCCCCC3C2C(=O)N1c1ccccc1 (configuration not stated) = ?
Output: > 47 µM

Input: Could you share what GI50 was measured for NCCCn1c(Cl)nc2ccccc21 , tested on HCT-15?
Output: > 100 µM

Input: Query for HCT-15: what GI50 does the record show for C(=C(c1ccc(OC2CCCCO2)cc1)c1ccc(OC2CCCCO2)cc1)c1ccccc1 (configuration not stated) ?
Output: 0.8 µM

Input: Which GI50 is reported with HCT-15 for this entry: O=C(Oc1ccc2c(-c3ccccc3)c(C(=O)Nc3ccc(Cl)cc3)c(=O)oc2c1)c1ccccc1 ?
Output: > 100 µM

* * *

- Tested on: SW-620
- MEASUREMENT_PROTOCOL: NCI tumour cell line growth inhibition, 48 h
Activity calls are given as the source filed them. No stated cut-off is given here; in the data, active = GI50 up to about 1.1 µM and inactive = higher.
MEASURED_ATTRIBUTE: GI50

Input: Bench note: what GI50 did Nc1nc2c(ncn2C2C=CC(COS(N)(=O)=O)C2)c(=O)[nH]1 (centres undefined) show?
Output: > 100 µM (inactive)

Input: Bench note: what GI50 did CN1C2=C(CC3=C1CC(C)(C)CC3=O)C(=O)CC(C)(C)C2 show?
Output: > 100 µM (inactive)

Input: # query: GI50 of entry CC(=O)O/N=C(/C)c1ccccc1O
Output: > 100 µM (inactive)

* * *

- Tested on: SN12C
- MEASUREMENT_PROTOCOL: NCI tumour cell line growth inhibition, 48 h
Active and inactive are the calls of the source. No stated cut-off is given here; in the data, active = GI50 up to about 1.1 µM and inactive = higher.
Select the correct class. Options are class 1 = active, class 0 = inactive and nothing else.

Here are 5 compounds together with their reported answers.
> print(dat)
                                   compound  class.label
1  COc1c(C)c(C/C=C(\C)CC/C=C(\C)CC/C=C(\C)CCC=C(C)C)c(OC)c2ccccc12      class 0
2  C=C1CC2C[C@H](OS(=O)(=O)c3ccc(C)cc3)C(C1)N2C (some centres not stated)      class 0
3  COc1c(C(C)(C)C)cc(CC2C(=O)C=CC2=O)cc1C(C)(C)C      class 0
4  O=c1[nH]/c(=C/c2ccc(OCc3ccccc3)cn2)c(=O)[nH]/c1=C/c1ccccc1      class 1
5  COC(=O)C1CC(c2ccc(Cl)cc2)=NO1 (configuration not stated)      class 0

Input: Fill in: this test's call for CCCN1C(=O)CN(S(=O)(=O)c2ccc(Cl)cc2)C1=O is ___
Output: class 0

Input: Any idea what this test logged for COc1ccc(C[C@H](N)C(=O)NC2C(CO)OC(n3cnc4c(N(C)C)ncnc43)C2O)cc1 (some centres not stated) ?
Output: class 1

Input: Outcome logged for O=C1[C@@H]2[C@@H](c3ccccc3)[C@]2(Cl)C(=O)[C@H]2[C@H](c3ccccc3)[C@@]12Cl in this assay:
Output: class 0

Input: Which result was noted for this compound in the test: O=S1(=O)CCN(Cc2ccccc2)/C1=N\S(=O)(=O)c1ccc(Cl)cc1
Output: class 0

Input: I'd appreciate the recorded outcome for COc1cc(O)c(Cc2ccccc2O)c(O)c1C(=O)CCc1ccccc1 from this test.
Output: class 0

Input: Please state the recorded outcome for this compound: C(/c1ccco1)=c1/nc(-c2ccccc2)n2c1nc1ccccc12
Output: class 0

Input: Which result was noted for this compound in the test: O=C(Oc1ccc2c(-c3ccccc3)c(C(=O)Nc3ccc(Cl)cc3)c(=O)oc2c1)c1ccccc1
Output: class 0

Input: Kindly provide the recorded test outcome for the following compound: CCCc1nc2c(n1CC)C(=O)c1ccccc1C2=O
Output: class 0

Input: Entry O=C1Cc2c([nH]c3c(Br)cccc23)-c2ccccc2N1 : call = ?
Output: class 0

Input: Status in this test for O=C1CCSCCC(=O)Nc2ccccc2N1 ?
Output: class 0

Input: How was O=c1[nH]c(=O)n(C2CC(O)C(CO)O2)c2nc3ccc4ccccc4c3nc12 (configuration not stated) classified in this test?
Output: class 0

Input: Fill in: this test's call for CN1CCC(c2c(O)cc(O)c3c(=O)cc(-c4ccccc4Cl)oc23)C(O)C1 (configuration not stated) is ___
Output: class 1

* * *

- Test system: IGROV-1
- MEASUREMENT_PROTOCOL: NCI tumour cell line growth inhibition, 48 h
Calls of active or inactive are those of the source. Cut-off read from the data, not from the text of the source: active = GI50 up to about 1.1 µM and inactive = higher.
MEASURED_ATTRIBUTE: GI50

Input: GI50 lookup needed for C#CC1(OC(C)=O)CCC2C3CC=C4C=C(OC(C)=O)CCC4(C)C3CCC21C (centres undefined) , thanks.
Output: 19.3 µM (inactive)

Input: Fill in the blank: the reported GI50 of NCCCn1c(Cl)nc2ccccc21 is ____.
Output: > 100 µM (inactive)

Input: Could you share which GI50 value was measured for NC1(P(=O)(O)O)CCCCC1 ?
Output: > 100 µM (inactive)

Input: Which GI50 reading was recorded for the compound Cc1nn(-c2ccccc2)c2c1C(c1ccc(Cl)cc1)NC(=S)N2 (centres undefined) ?
Output: 12.6 µM (inactive)
